# protocol notes: Oral bioavailability in rat at 10 mg/kg
# Assay type: ADME, organism-based
# stated conditions: in vivo
recorded endpoint: bioavailability

>>> measured_value("CCS(=O)(=O)N[C@@H]1C[C@]2(C)O[C@]1(C)[C@@H]1C(=O)N(c3ccc(C#N)c(C(F)(F)F)c3)C(=O)[C@@H]12")
"63.9%"

###

# protocol notes: Clearance in mouse at 5 mg/kg, iv and 10 mg/kg, po
# Assay type: ADME, organism-based
# stated conditions: in vivo
recorded endpoint: clearance (mL/min/kg)

>>> measured_value("CCS(=O)(=O)N[C@@H]1C[C@]2(C)O[C@]1(C)[C@@H]1C(=O)N(c3ccc(C#N)c(C(F)(F)F)c3)C(=O)[C@@H]12")
4.5
